# EXPERIMENTAL_DETAILS: qHTS Assay for Inhibitors of Hepatitis C Virus (HCV); further: potency means the concentration at half of the fitted maximal effect
# CONDITION_INFO: Huh7.5.1 HCVcc-Cre infection, luciferase reporter, 44 h; series mostly up to 41.8 µM
The campaign covered roughly 340,000 compounds. About 12,000 (3.5%) were called active. Not shown: some 18% with an inconclusive outcome. Only a selection was taken, and actives are over-represented in it overall.
VALUE_KIND: Potency

COc1ccccc1CN(C)C(=O)c1cc2ccccc2o1 :: inactive
CN(C)c1nc(N)nc(CSc2nnnn2-c2cccc3ccccc23)n1 :: 3.16 µM (active)
Cc1ccc(OCCC(=O)Nc2ccc(S(=O)(=O)Nc3nccs3)cc2)cc1 :: inactive
Cc1ccc2nc(-c3cccnc3)c(NC3CCCC3)n2c1 :: inactive
O=C(c1ccccc1[N+](=O)[O-])N1CCC2(CC1)OCCO2 :: inactive
OCC1(Cc2ccccc2)CCN(Cc2cc3ccccc3o2)CC1 :: inactive
O=C(c1cc2nc(-c3ccccc3)cc(-c3ccccc3)n2n1)N1CCC2(CC1)OCCO2 :: 10 µM (active)
CN(C)CCCCCN(C)Cc1cc2ccccc2o1 :: 3.16 µM (active)
COc1ccc(-c2nc3cc(C)ccn3c2NC2CCCCC2)cc1SC1CCCCC1 :: 3.55 µM (active)
COc1ccc(C)cc1S(=O)(=O)NC1CCCCC1 :: inactive

Look up Potency for this compound: COc1ccc(-c2ccc3nnc(SCC(=O)Nc4ccc(NC(C)=O)cc4)n3n2)cc1
inactive
